Just for reference, patent US20120231006A1 is where these values come from.

Target: T1, hOrai1-mOrai1 ECL2 (…) protein (human/mouse chimera, UniProt Q96D31 1-301)
T1 construct: also called Ch
T1 sequence (Q96D31 other isoform, or with tags, fused parts or gaps): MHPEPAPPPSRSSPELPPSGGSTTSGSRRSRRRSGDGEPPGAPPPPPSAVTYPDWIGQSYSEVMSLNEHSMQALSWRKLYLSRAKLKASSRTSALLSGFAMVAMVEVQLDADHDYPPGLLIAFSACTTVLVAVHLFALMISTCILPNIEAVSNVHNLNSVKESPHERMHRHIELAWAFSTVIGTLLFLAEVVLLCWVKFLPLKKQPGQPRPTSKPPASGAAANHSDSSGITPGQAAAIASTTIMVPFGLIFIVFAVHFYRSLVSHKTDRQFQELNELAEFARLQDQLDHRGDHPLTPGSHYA
Assay: FACS, 293EBNA, RFI-POC grade
Set-up: concentration or dose not given beside the values
Exercise: for every item that follows, state its recorded percent of control (POC) of FACS Geo Mean.

Determine its reported percent of control (POC) of FACS Geo Mean: mAb 5C1.1 (antibody, human IgG2, lambda, V domains shown, fully human IgG2 lambda, Campaign 2) VH: QVQLVQSGAEVKKPGASVKVSCKASGYTFTDYYMNWVRQAPGQGLEWMGWINPNSGGTKYAQKFQGRVTMTRDTSIRTAYMELSRLRSDDTAVYYCAREYGGNSDWFDPWGQGTLVTVSS VL: QSVLTQPPSVSGAPGQRVTISCTGSSSNIGAGYDVHWYQQLPGTAPKLLIYGNSNRPSGVPDRFSGSKSGTSASLAITGLQAEDEADYYCQSYDNRLSDSVVIGGGTKLAVQG
40 to 100%

Determine its reported percent of control (POC) of FACS Geo Mean: mAb 2D2.1 (antibody, human IgG2, lambda, V domains shown, fully human IgG2 lambda, Campaign 1; also called mAb 2D.1) VH: QVQLQQWGAGLLKPSETLSLTCAVYGGSFSGYYWSWIRQPPGKGLEWIGEIDHSGRINYNPALKSRLTISVDTSKNQFSLKLSSVTAADTAVYYCARAGSGGYEDWFDPWGQGTLVTVSS VL: QSVLTQPPSVSGAPGQRVTISCTGSSSNIGAGYNVHWYQQFPRTDPKLLIYVYNIRPSGVPDRFSGSRSGTSASLAITGLQTEDEADYYCQSYDSSLSGVVFGGGTKLTVLG
40 to 100%

Determine its reported percent of control (POC) of FACS Geo Mean: mAb 5B5.2 (antibody, human IgG2, lambda, V domains shown, fully human IgG2 lambda, Campaign 2; same chains as 5B5.1) VH: QVQLVQSGAEVKKPGASVKVSCKASGYTFTDYYINWVRQAPGQGLEWMGWINPNSGGTDYAQKFQGRVTMTRDTSIRTAYMELNRLTSDDTAVYYCAREYGGYEDWFDPWGQGTLVTVSS VL: QSVLTQPPSVSGAPGQRVTISCTGSNSNIGAGFDVHWYQQLPGTVPKLLIYGNNNRPSGVPDRFSGSKSGTSASLAITGLQAEDEADYYCQSYDSRLTVFGGGTKLTVLG
40 to 100%
